Reference source: patent US20260167721A1

Consider the following binders; for each one, report its koff.
systemUnderTest: T1, recombinant human CD3 epsilon/gamma heterodimer (human, UniProt P07766 23-126; P09693 23-116)
T1 construct: Recombinant heterodimer used as analyte in Octet; also called hCD3 E/G
T1 sequence (P07766 23-126, chain 1 of 2): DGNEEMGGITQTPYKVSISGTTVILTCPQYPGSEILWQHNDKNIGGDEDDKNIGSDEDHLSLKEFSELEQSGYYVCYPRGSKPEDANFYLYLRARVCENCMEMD
T1 sequence (P09693 23-116, chain 2 of 2): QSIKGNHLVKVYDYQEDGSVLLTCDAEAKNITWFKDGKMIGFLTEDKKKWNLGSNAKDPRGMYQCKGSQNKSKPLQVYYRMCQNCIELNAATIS
runDescription: BLI (Octet), mAb 5 ug/mL on FAB2G sensor, hCD3 E/G 200-50 nM;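 also: antibodies purified from hybridoma supernatants, measured by Octet binding to recombinant human CD3 protein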
Give bare numbers, in s⁻¹.

binder: ABL-CD3-72 (antibody, V domains shown, mAb purified from hybridoma; chimeric AlivaMab IgG (human VH, CH1 and upper hinge; mouse middle hinge, CH2, CH3; human light chain)) VH: EVQLVESGGGLVKPGGSLRLSCAASGFTFSTYIMNWVRQAPGKGLEWVSSISSSRSYIYYADSVKGRFTISRDNAKNSLYLQMNSLRAEDTAVYYCAREDRYRLFFDYWGQGTLVTVSS VL: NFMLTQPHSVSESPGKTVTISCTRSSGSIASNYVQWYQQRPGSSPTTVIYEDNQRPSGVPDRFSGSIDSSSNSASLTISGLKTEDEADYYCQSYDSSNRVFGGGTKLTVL
koff, s⁻¹: 0.211

binder: ABL-CD3-80 (antibody, V domains shown, mAb purified from hybridoma; chimeric AlivaMab IgG (human VH, CH1 and upper hinge; mouse middle hinge, CH2, CH3; human light chain)) VH: EVQLVESGGGLVKPGGSLRLSCAASGFTFSGYSMNWVRQAPGKGLEWVSSISSRSRYIYYADSVQGRFTISRDNSKNSLFLQMNSLRAEDTAVYYCGRDWRELLLDYWGQGTLVTVSS VL: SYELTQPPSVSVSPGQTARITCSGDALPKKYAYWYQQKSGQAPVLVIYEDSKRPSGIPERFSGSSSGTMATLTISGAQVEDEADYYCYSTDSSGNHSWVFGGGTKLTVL
koff, s⁻¹: 0.036

Hi, could you look up koff for each item in my list?
1. ABL-CD3-69 (antibody, V domains shown, mAb purified from hybridoma; chimeric AlivaMab IgG (human VH, CH1 and upper hinge; mouse middle hinge, CH2, CH3; human light chain)) VH: EVQLVESGGGLVKPGGSLRLSCAASGFTFSTYTMNWVRQAPGKGLEWVSTITSSSRYIYYADSVKGRFTISRDNAKNSLYLQMNSLRAEDTAVYYCARVTFDAFDIWGQGTMVTVSS VL: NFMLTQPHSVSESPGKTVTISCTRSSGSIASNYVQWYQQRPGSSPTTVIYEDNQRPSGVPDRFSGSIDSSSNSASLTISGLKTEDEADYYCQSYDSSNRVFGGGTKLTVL
2. ABL-CD3-75 (antibody, V domains shown, mAb purified from hybridoma; chimeric AlivaMab IgG (human VH, CH1 and upper hinge; mouse middle hinge, CH2, CH3; human light chain)) VH: EVQLVESGGGLVKPGGSLRLSCAASGFTFSTYSLNWVRQAPGKGLEWVSSISVSSRYIYFADSVKGRFTISRDNAKNSLYLQMNSLRAEDTAVYYCARDRRELLLDYWGQGTLVTVSS VL: SYELTQPPSVSVSPGQTARITCSGDALPKKYAYWYQQKSGQAPVLVIYEDSKRPSGIPERFSGSSSGTMATLTISGAQVEDEADYYCYSTDSSGNHNWVFGGGTKLTVL
3. ABL-CD3-64 (antibody, V domains shown, mAb purified from hybridoma; chimeric AlivaMab IgG (human VH, CH1 and upper hinge; mouse middle hinge, CH2, CH3; human light chain)) VH: EVQVAESGGGLVKPGGSLRLSCAASGFTFSRYSMNWVRQAPGKGLEWVSSISSSGSYTYYADSVKGRFTISRDNAKNSLYLQMNSLRAEDTAVYYCVRERGKGAGMDVWGQGTTVTVSS VL: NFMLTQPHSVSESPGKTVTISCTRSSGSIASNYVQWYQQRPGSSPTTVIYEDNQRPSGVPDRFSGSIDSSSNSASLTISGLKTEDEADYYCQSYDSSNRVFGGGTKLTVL
4. ABL-CD3-70 (antibody, V domains shown, mAb purified from hybridoma; chimeric AlivaMab IgG (human VH, CH1 and upper hinge; mouse middle hinge, CH2, CH3; human light chain)) VH: EVQLVESGGGLVKPGGSLRLSCAASGFTFSTYIMNWVRQAPGKGLEWVSSITSSSSYIYYADSVKGRFTISRDNAKNSLYLQMNSLRAEDTAVYYCAREKWELLFFDYWGQGTLVTVSS VL: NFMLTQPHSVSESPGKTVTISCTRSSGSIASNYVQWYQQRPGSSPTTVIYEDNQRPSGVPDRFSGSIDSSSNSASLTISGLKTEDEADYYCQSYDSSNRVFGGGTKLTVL
5. ABL-CD3-78 (antibody, V domains shown, mAb purified from hybridoma; chimeric AlivaMab IgG (human VH, CH1 and upper hinge; mouse middle hinge, CH2, CH3; human light chain)) VH: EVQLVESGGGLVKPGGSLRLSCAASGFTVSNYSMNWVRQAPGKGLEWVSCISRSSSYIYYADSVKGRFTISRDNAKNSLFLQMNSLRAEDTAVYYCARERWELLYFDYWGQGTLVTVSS VL: NFMLTQPHSVSESPGKTVTISCTRSSGSIASNYVQWYQQRPGSSPTTVIYEDNQRPSGVPDRFSGSIDSSSNSASLTISGLKTEDEADYYCQSFDGSNRVFGGGTKLTVL
6. ABL-CD3-76 (antibody, V domains shown, mAb purified from hybridoma; chimeric AlivaMab IgG (human VH, CH1 and upper hinge; mouse middle hinge, CH2, CH3; human light chain)) VH: EVQLVESGGGLVKPGGSLRLSCAASGFTFSNYYMNWVRQAPGKGLERVSSISSSSNYIYYADSVKGRFTISRDNAKNSLYLQMNSLRAEDTAVYYCARDRRELPLDYWGQGTVVTVSS VL: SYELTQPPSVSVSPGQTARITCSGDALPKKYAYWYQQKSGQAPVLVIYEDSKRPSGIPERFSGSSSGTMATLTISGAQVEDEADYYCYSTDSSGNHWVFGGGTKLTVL
7. ABL-CD3-66 (antibody, V domains shown, mAb purified from hybridoma; chimeric AlivaMab IgG (human VH, CH1 and upper hinge; mouse middle hinge, CH2, CH3; human light chain)) VH: QVQLQESGPGLVKPSETLSLTCTVSGGSISSYYWSWIRQPAGKGLEWIGRIYASGSTYYNPSLKSRVTMSVDTSKNQFSLKLSSVTAADTAVYYCAREKRSRLYFDYWGQGTLVTVSS VL: NFMLTQPHSVSESPGKTVTISCTRSSGSIASNYVQWYQQRPGSSPTTVIYEDNQRPSGVPDRFSGSIDSSSNSASLTISGLKTEDEGDYYCQSYDRSNRVFGGGTKLTVL

Ans:
[0.000321, 0.0593, 0.013, 0.00339, 0.00157, 0.0461, 0.0856]
